Target: Thioredoxin reductase 1, cytoplasmic (Rattus norvegicus) (UniProt O89049)
Sequence (O89049 whole entry, looked up): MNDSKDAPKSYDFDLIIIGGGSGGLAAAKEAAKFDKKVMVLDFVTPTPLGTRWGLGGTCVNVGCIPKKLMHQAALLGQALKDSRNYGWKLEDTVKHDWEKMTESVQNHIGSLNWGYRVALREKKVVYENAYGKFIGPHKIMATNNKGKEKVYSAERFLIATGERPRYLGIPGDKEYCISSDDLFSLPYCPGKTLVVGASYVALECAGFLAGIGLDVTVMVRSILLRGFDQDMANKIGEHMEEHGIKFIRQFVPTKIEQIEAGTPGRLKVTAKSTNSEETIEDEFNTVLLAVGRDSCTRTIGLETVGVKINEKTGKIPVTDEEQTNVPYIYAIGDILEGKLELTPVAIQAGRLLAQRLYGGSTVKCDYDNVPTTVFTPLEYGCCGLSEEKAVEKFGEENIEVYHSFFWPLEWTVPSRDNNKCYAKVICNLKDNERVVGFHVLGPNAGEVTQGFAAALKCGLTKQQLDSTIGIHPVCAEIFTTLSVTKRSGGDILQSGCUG
Experiment: qHTS Assay for Inhibitors of Mammalian Selenoprotein Thioredoxin Reductase 1 (TrxR1): qHTS; also: nearly all actives have a fitted effect of over 65% in size
Conditions: recombinant rTrxR1, NADPH fluorescence consumption, selenite substrate; series mostly up to 114 µM
About 4,000 (1%) of roughly 390,000 compounds were called active. Roughly 4% stayed inconclusive and do not appear here. Calls follow the shape of the dose curve; as a rule, active = well fitted inhibition curve with a large enough effect; inconclusive = small, poorly fitted or top-dose-only effect; inactive = no such curve, though single readings can be large or run the other way. For the sample, actives were picked, then their nearest neighbours and some compounds at random.
Give your call using only these classes: active, inactive

Q: Could you check what this test reported for COc1ccc(N2C(=O)/C(=C\c3ccco3)N=C2SCC(N)=O)cc1Cl ?
Result: inactive

Q: Which result was noted for this molecule in the test: C=C(C)C(=O)O[C@H]1C/C(C)=C\C(=O)/C=C(\C)[C@H](O)[C@@H]2OC(=O)C(=C)[C@@H]21
Result: active

Q: What is the recorded call for this molecule in the test? COC(=O)C1=C(C)N(C(C)c2ccccc2)C(=O)/C1=C\c1ccco1 (stereo unspecified)
Result: active

Q: Hi team, can someone confirm the assay call for O=[N+]([O-])c1c(NCCO)cc(Sc2nc3ccccc3s2)c2nonc12 ?
Result: active

Q: Which outcome was entered for the molecule CCCOc1ccc(N2C(=O)CC(N(CCc3ccc(S(N)(=O)=O)cc3)C(C)=O)C2=O)cc1 (stereo unspecified) in this test?
Result: inactive

Q: Recorded test call requested for Cc1ccc(C)c(N2CCN(Cc3nnc(-c4ccccc4)o3)CC2)c1
Result: inactive

Q: Call for entry CC(C)(C)c1ccc(S(=O)(=O)Nc2ccc(O)c(Sc3nc4ccccc4s3)c2)cc1 :
Result: inactive

Q: Identify the outcome logged in this assay for the molecule shown: COC(=O)C1=C(C)N(c2ccc(Br)cc2)C(=O)/C1=C\c1ccco1
Result: active

Q: Just curious, what result did Cc1ccc(-c2cc(C(=O)NN)n[nH]2)o1 get here?
Result: inactive

Q: Identify the outcome logged in this assay for the molecule shown: COc1ccc(NC(=O)c2ccc3nc(CCc4ccccc4)oc3c2)c(OC)c1
Result: inactive

Q: // param item: Cc1ccc2nc(CNC(=O)c3ccccc3)[nH]c2c1 ; yields the recorded call
Result: inactive

Q: Identify the outcome logged in this assay for the molecule shown: COc1cc(OC)c2c(C)cc(=O)oc2c1C(CCN1CCCCC1)c1ccc(N(C)C)cc1 (stereo unspecified)
Result: inactive

Q: Which outcome was assigned to COc1ccc(Cc2nnc(SCC(=O)c3cccc([N+](=O)[O-])c3)n2C)cc1 in this test?
Result: active

Q: Per the records of this test, what outcome belongs to CCOc1ccc(N2C(=O)CC(N(CCc3ccc(OC)c(OC)c3)C(=S)Nc3ccccc3)C2=O)cc1 (stereo unspecified) ?
Result: inactive

Q: For this molecule, state the assay outcome: CCOC(=O)c1ccc(NC(=O)C2CC(=O)NC(=Nc3ccc(C)c(C)c3)S2)cc1 (stereo unspecified)
Result: inactive

Q: What was the test verdict on CCn1c(CNc2ccc(OC)cc2)nnc1SCC(=O)c1ccc(OC)cc1 ?
Result: inactive

Q: Hi team, can someone confirm the assay call for COC(=O)C1=C(C)N(C)C(C)=C(C(=O)OC)C1c1cccc(Br)c1 ?
Result: inactive

Q: Outcome logged for Cc1ccc(NC(=O)c2cc(-c3ccc(C)o3)nc3ccccc23)nc1 in this assay:
Result: active

Q: Recorded call for CCCS(=O)(=O)c1ncc(Cl)c(C(=O)Nc2scc(-c3ccccc3)c2C(=O)OCC)n1 ?
Result: active

Q: Lab log entry: COc1ccc(CC(=O)NCc2nnc(SCC(=O)Nc3nccs3)n2C)cc1 — outcome as called in the assay?
Result: inactive

Q: What did this assay record as the result for Cc1cccc(CN2Cc3cccc4c3[C@H](C=CC4)CC2=S)c1 ?
Result: inactive

----------
Biological target: Thioredoxin reductase 1, cytoplasmic (Rattus norvegicus) (UniProt O89049)
Assay: qHTS Assay for Inhibitors of Mammalian Selenoprotein Thioredoxin Reductase 1 (TrxR1): qHTS; also: nearly all actives have a fitted effect of over 65% in size
Details: recombinant rTrxR1, NADPH fluorescence consumption, selenite substrate; series mostly up to 114 µM
In all, about 390,000 compounds went through this assay and about 4,000 (1%) were called active. Another 4% or so got no clear call; they are omitted. Calls follow the shape of the dose curve; as a rule, active = well fitted inhibition curve with a large enough effect; inconclusive = small, poorly fitted or top-dose-only effect; inactive = no such curve, though single readings can be large or run the other way. This excerpt belongs to a sample that is enriched for actives.
// classify into TRUE (active), FALSE (inactive)

Q: # fetch the recorded call for CC(C)(C(=O)NO)c1ccccc1 here
Result: FALSE

Q: # lookup: test call for O=C(OCc1cc(Cl)ccc1OC(F)F)c1cccnc1
Result: FALSE

Q: Field: outcome | Entry: CC(C)S(=O)(=O)c1oc(-c2ccc(F)cc2)nc1S(=O)(=O)c1ccc(F)cc1
Result: TRUE

Q: For this compound, state the assay outcome: CCOC(=O)N1CCN(c2cc(C)c([N+](=O)[O-])cc2F)CC1
Result: FALSE

Q: Which outcome did this test record for the compound COc1ccccc1-n1c(-c2cc(-c3ccco3)[nH]n2)n[nH]c1=S ?
Result: TRUE

Q: Please indicate how the test categorized Cc1ccc(C)c(NC(CC(=O)c2ccccc2)C(=O)OCC(=O)c2cccs2)c1 (stereo not drawn) .
Result: TRUE

Q: Recorded call for CC1(C)C=Cc2c(ccc(C(=O)/C=C/c3ccccc3)c2O)O1 ?
Result: FALSE

Q: Dear colleague, could you share the recorded outcome for O=C(Nc1cccc(Cl)c1)c1csnn1 when you have a moment?
Result: FALSE

Q: // return assay outcome for O=C(CSc1oc(-c2ccc(F)cc2)nc1S(=O)(=O)c1ccc(Br)cc1)NC1CCCCC1
Result: FALSE

Q: Check the results log: what was the call for Cc1cccc(-c2nc(CS(=O)CC(=O)NC(C)CCc3ccccc3)c(C)o2)c1 (stereo not drawn) ?
Result: TRUE

Q: Any idea what this test logged for CC(C)(C)c1ccc(C(=O)C[n+]2cccc3cc(Cl)ccc32)cc1 ?
Result: FALSE

Q: Look up the recorded call for CCOC(=O)Cc1ccc(NC(=O)Nc2c[nH]c(=O)[nH]c2=O)cc1 in this test.
Result: FALSE

Q: Which outcome was entered for the compound COc1cc(C(=S)N2CCOCC2)cc(OC)c1OC(=O)c1ccc([N+](=O)[O-])cc1[N+](=O)[O-] in this test?
Result: FALSE

Q: Can you look up the reported call for Nc1ncnc2nnsc12 for me?
Result: FALSE

Q: Kindly provide the recorded test outcome for the following compound: O=C(Nc1nsc(-c2ccccc2)n1)c1ccncc1
Result: FALSE

Q: # outcome recorded in this test, key = SCc1nc2ccc(Cl)cc2[nH]1
Result: FALSE

Q: Lab log entry: C#CC(C)(CC)NC(=O)Cn1nnc(-c2ccc(OCc3c(F)cccc3Cl)cc2)n1 (stereo not drawn) — outcome as called in the assay?
Result: FALSE

Q: Returns: the outcome recorded for C=C1CCN(C(CC(C)C)C(=O)N2CCOCC2)S(=O)(=O)c2ccccc21 (stereo not drawn) in this assay.
Result: FALSE

Q: # lookup: test call for CCOc1ccc(-c2cc3c(=O)n(CC(=O)NCc4ccc(OC)cc4)ccn3n2)cc1
Result: FALSE

Q: Recorded test outcome, item COC(=O)C(CC(=O)Nc1cc(C)ccc1C)Nc1ccccc1OC (stereo not drawn)
Result: FALSE

Q: Status in this test for Cc1ccc(-n2c(=O)cc(N3CCN(Cc4ccccc4)CC3)[nH]c2=O)cc1 ?
Result: FALSE

Q: Write down the call the test reported for this compound. Item: Cc1csc(NC(=S)Nc2cccc(Cl)c2)n1
Result: TRUE

Q: Status in this test for Cn1c(=O)oc2cc(S(=O)(=O)CCC(=O)NCCc3ccc(Cl)cc3)ccc21 ?
Result: FALSE

----------
Target: Thioredoxin reductase 1, cytoplasmic (Rattus norvegicus) (UniProt O89049)
Assay: qHTS Assay for Inhibitors of Mammalian Selenoprotein Thioredoxin Reductase 1 (TrxR1): qHTS; also: nearly all actives have a fitted effect of over 65% in size
Conditions: recombinant rTrxR1, NADPH fluorescence consumption, selenite substrate; series mostly up to 114 µM
Among all 390,000 compounds or so, about 4,000 (1%) were called active. Another 4% or so got no clear call; they are omitted. The call rests on the fitted dose curve; in most records, active means well fitted inhibition curve with a large enough effect; inconclusive means small, poorly fitted or top-dose-only effect; inactive means no such curve, though single readings can be large or run the other way. This excerpt belongs to a sample that is enriched for actives.
Your answer must be one of the following: yes (1) = active, no (0) = inactive

Q: For this molecule, state the assay outcome: O=C(CCN1CCc2ccccc2C(O)(c2ccccc2)C1)c1ccc2c(c1)OCCO2 (configuration not stated)
Result: yes (1)

Q: Just curious, what result did COc1ccc(S(=O)(=O)NCC(c2ccc(N(C)C)cc2)N2CCCC2)cc1 (configuration not stated) get here?
Result: no (0)

Q: Returns: the outcome recorded for O=C(C1CCC(Cn2c(=O)c3sccc3n(Cc3ccccc3F)c2=O)CC1)N1CCCCC1 (configuration not stated) in this assay.
Result: no (0)

Q: # fetch the recorded call for O=C(NCCCc1ccccc1)c1ccc2c(c1)sc1nc(-c3ccc(F)cc3)cn12 here
Result: no (0)

Q: How did this test come out for COc1ccc2cc(-c3[nH]ncc3CNCCn3nc(C)cc3C)ccc2c1 ?
Result: no (0)

Q: For this molecule, state the assay outcome: O=C(NCCCN1CCN(c2cccc(Cl)c2)CC1)c1nnc(Cc2ccc(F)cc2Cl)o1
Result: no (0)

Q: I would be grateful if you could indicate the recorded call for CCc1ccc(N(CC)C(=O)CCn2cnc3onc(-c4ccc(F)cc4)c3c2=O)cc1 .
Result: no (0)

Q: Query: recorded result category for CCOc1ccccc1NC(=O)C1CCCN(S(=O)(=O)c2cn(C)cn2)C1 (configuration not stated) in this test
Result: no (0)

Q: Outcome? CC1(C)Cc2ccccc2-c2c[nH]c(=O)n21
Result: no (0)

Q: Record request — test call for CCn1c(SCC(=O)NNC(=O)c2ccc(OC)cc2)nnc1C(C)C
Result: no (0)

Q: Entry COc1ccc(N2C(=O)CC(N3CCC(C(N)=O)CC3)C2=O)cc1 (configuration not stated) : call = ?
Result: yes (1)

Q: Tell me the recorded outcome of this test for CCOC(=O)C1=C(NC(=S)NC(=O)c2ccccc2)c2ccccc2CC1(C)C .
Result: no (0)

Q: For COc1cccc(CNC(=O)c2ccc3c(Cl)c4c(nc3c2)CCCC4)c1 , what call appears in the results of this test?
Result: no (0)

Q: Tell me the recorded outcome of this test for COc1cc(OC)c(OC)cc1/C=C1\C=Cc2ccccc21 .
Result: no (0)

Q: Hi team, can someone confirm the assay call for COC(=O)c1cc(NC(=O)c2cnc(SC)nc2-c2ccccc2)cc(C(=O)OC)c1 ?
Result: no (0)

Q: Check the results log: what was the call for O=C1O/C(=C\c2ccc(O)cc2)C(O)=C1c1ccc(O)cc1 ?
Result: no (0)

Q: Tell me the assay call for COc1ccc(C(C[N+](=O)[O-])n2nc(C)cc2C)cc1 (configuration not stated) please.
Result: yes (1)

Q: Hi team, can someone confirm the assay call for O=C(OCc1ccccc1F)c1ccc2c(c1)OCCO2 ?
Result: no (0)

Q: How did this test come out for COc1cccc(N2CCN(C3CC(=O)N(c4ccc(Cl)cc4)C3=O)CC2)c1 (configuration not stated) ?
Result: no (0)

Q: Returns: the outcome recorded for CCn1c(SC)nc(O)c(C(c2ccc(OC)c(O)c2)c2c(O)nc(SC)n(CC)c2=O)c1=O in this assay.
Result: yes (1)

Q: Kindly provide the recorded test outcome for the following molecule: CCOC(=O)c1ccc(N2C(=O)CC(N3CCC(C(=O)OCC)CC3)C2=O)cc1 (configuration not stated)
Result: no (0)

Q: Name the outcome recorded for COc1ccc(-n2c(SC)nc(O)cc2=O)cc1 in the assay.
Result: no (0)
